The entries below are paired with their reported normalized growth.
assay procedure: chemical genetic growth profiling, strain panel (AID 1159580);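 note: tested at 20 µM; growth read once vehicle control cultures reached saturation at 30 °C; 1 = growth at the plate median or of vehicle wells; lower values mean less growth of the strain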
study conditions: S. cerevisiae deletion strains, growth OD, locus YFL009W, strain cdc4, active compounds read low
Out of some 5,500 compounds screened, about 2,000 (36%) were called active. Roughly 18% stayed inconclusive and do not appear here. The list shows a part of the results.
// no unit string in output, number only

COC(=O)c1cc([N+](=O)[O-])ccc1S(=O)(=O)Cc1ccc(Cl)cc1
0.99
CCOC(=O)C(NC(=O)c1cccc(Cl)c1)(Nc1nc2ccccc2s1)C(F)(F)F (stereo not given)
0.954
O=[N+]([O-])c1ccc(Sc2ccccc2)c([N+](=O)[O-])c1
0.847
O=C(NCc1ccc2c(c1)OCO2)c1cc2ccccc2s1
0.858

Shift focus to the following entry.
Prompt line: Consider the compound `Cc1cc(N=Cc2cc(Cl)cc(Cl)c2O)no1` . State its measured normalized growth.
Response line: 0.97

----------
The entries below are paired with their reported normalized growth.
assay procedure: chemical genetic growth profiling, strain panel (AID 1159580)
study conditions: S. cerevisiae deletion strains, growth OD, locus YGR135W, strain pre9, active compounds read low
Out of some 5,500 compounds screened, about 2,000 (36%) were called active. Not shown: some 18% with an inconclusive outcome. The list shows a part of the results.
// no unit string in output, number only

Below: 4 compounds and their reported normalized growth.
NS(=O)(=O)c1cc2c(cc1Cl)NCNS2(=O)=O
0.984
C[C@]12CC[C@@H](O)C[C@H]1CCc1ccccc12
0.992
CCCc1ncc(C[n+]2ccccc2C)c(N)n1
0.984
O=C1c2ccccc2C(=O)c2ccccc21
0.994

Shift focus to the following entry.
Prompt line: Consider the compound `CC(C)[C@@H]1CC[C@@H](C)CC1=O` . State its measured normalized growth.
Response line: 1.01

----------
assay procedure: chemical genetic growth profiling, strain panel (AID 1159580)
study conditions: S. cerevisiae deletion strains, growth OD, locus YOR061W, strain CKA2, active compounds read low
About 2,000 (36%) of roughly 5,500 compounds were called active. Another 18% or so got no clear call; they are omitted. The list shows a part of the results.
test readout: normalized growth
// no unit string in output, number only

CNC(=O)N(C)c1nnc(C(C)(C)C)s1
1.01

Prompt line: Consider the compound `O=S(=O)(Nc1c(F)cccc1F)c1ccc(Cl)c(Cl)c1` . State its measured normalized growth.
Response line: 0.969

Prompt line: Consider the compound `Cc1csc2ncnc(N3CCN(C(=O)Nc4ccc(SC(F)(F)F)cc4)CC3)c12` . State its measured normalized growth.
Response line: 0.864

Prompt line: Consider the compound `Cc1csc2c(N3CCN(C(=S)Nc4ccc(C(F)(F)F)cc4)CC3)ncnc12` . State its measured normalized growth.
Response line: 0.964

Prompt line: Consider the compound `O=C(/C=C/c1ccc(Cl)cc1)Nc1cccc(Cl)c1` . State its measured normalized growth.
Response line: 0.857

Prompt line: Consider the compound `O=C(O)c1cc(=O)c2ccccc2[nH]1` . State its measured normalized growth.
Response line: 0.969

Prompt line: Consider the compound `COc1ccc(CC(=O)c2ccc(O)cc2O)cc1` . State its measured normalized growth.
Response line: 0.983

Prompt line: Consider the compound CC1SC(c2cccnc2)N(c2ccc(F)cc2F)C1=O (centres undefined) . State its measured normalized growth.
Response line: 0.995

Prompt line: Consider the compound C[N+]12CCC(CC1)C(OC(=O)C(O)(c1ccccc1)c1ccccc1)C2 (centres undefined) . State its measured normalized growth.
Response line: 0.99

Prompt line: Consider the compound `COc1ccc(OC)c2nc3c(nc12)C(=O)c1ccccc1-3` . State its measured normalized growth.
Response line: 0.938

Prompt line: Consider the compound `Cc1c(NC(C)C)c(=O)n(-c2ccccc2)n1C` . State its measured normalized growth.
Response line: 0.997

Prompt line: Consider the compound `CC(C)OC(=O)Nc1cc(Cl)cc(Cl)c1` . State its measured normalized growth.
Response line: 0.875

Prompt line: Consider the compound `CCOC(=O)c1cnc(-c2ccccn2)[nH]c1=O` . State its measured normalized growth.
Response line: 0.835

Prompt line: Consider the compound COc1ccccc1OCC(O)COC(N)=O (centres undefined) . State its measured normalized growth.
Response line: 1

----------
assay procedure: chemical genetic growth profiling, strain panel (AID 1159580)
study conditions: S. cerevisiae deletion strains, growth OD, locus YJL134W, strain LCB3, active compounds read low
In all, about 5,500 compounds went through this assay and about 2,000 (36%) were called active. Roughly 18% stayed inconclusive and do not appear here. The list shows a part of the results.
test readout: normalized growth
// no unit string in output, number only

CCC[C@@H]1C[C@@H](C(=O)N[C@H]([C@H]2O[C@H](SC)[C@H](O)[C@@H](O)[C@H]2O)[C@H](C)O)N(C)C1
0.998
CCCN(CCC)c1c([N+](=O)[O-])cc(C(F)(F)F)cc1[N+](=O)[O-]
1
COc1cc(Cc2cnc(N)nc2N)cc(OC)c1OC
0.999
C=C(C)C1Cc2c(ccc(C(=O)O)c2O)O1 (configuration not stated)
0.979
CN1C(=O)CC[C@H]1c1cccnc1
0.996
CC(C)[C@@H]1CC[C@@H](C)C[C@H]1OC(=O)c1ccccc1
1.02

Shift focus to the following entry.
Prompt line: Consider the compound `CC(C)N=C(N)N=C(N)Nc1ccc(Cl)cc1` . State its measured normalized growth.
Response line: 1.01

----------
assay procedure: chemical genetic growth profiling, strain panel (AID 1159580)
study conditions: S. cerevisiae deletion strains, growth OD, locus YJR066W, strain TOR1
Out of some 5,500 compounds screened, about 2,000 (36%) were called active. About 18% were inconclusive and are not listed. No stated cut-off is given here; in the data, active means normalized growth mostly below about 0.91 (no sharp cut-off); inconclusive means no clear call, values can overlap the other calls; inactive means mostly above about 0.92. This is one part of the list.
Outcomes you can answer with include only these: active, inactive

Before answering, review these 2 worked examples.
N#CC(C(=O)Nc1cccc(C(F)(F)F)c1)C(=S)Nc1ccccc1Cl (stereo not drawn)
inactive
ClC1C(Cl)C(Cl)C(Cl)C(Cl)C1Cl (stereo not drawn)
inactive

--- query ---
Prompt line: Any idea what this test logged for `O=C(O)c1cccnc1C(=O)O` ?
Response line: inactive

----------
assay procedure: chemical genetic growth profiling, strain panel (AID 1159580);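 note: tested at 20 µM; growth read once vehicle control cultures reached saturation at 30 °C; 1 = growth at the plate median or of vehicle wells; lower values mean less growth of the strain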
study conditions: S. cerevisiae deletion strains, growth OD, locus YOR290C, strain snf2, active compounds read low
Screen size: about 5,500 compounds; about 2,000 (36%) were called active. Not shown: some 18% with an inconclusive outcome. The list shows a part of the results.
The entries below are paired with their reported normalized growth.
// no unit string in output, number only

COc1ccc(NS(=O)(=O)c2ccc(N)cc2)nn1
0.991

Prompt line: Consider the compound `CC(=O)OCC1=C(C(=O)O)N2C(=O)[C@@H](NC(=O)CSc3ccncc3)[C@H]2SC1` . State its measured normalized growth.
Response line: 0.998

Prompt line: Consider the compound C=C(C)C1Cc2c(ccc3c(=O)c4c(oc23)COc2cc(OC)c(OC)cc2-4)O1 (centres undefined) . State its measured normalized growth.
Response line: 0.998

Prompt line: Consider the compound `O=C(CCc1ccc(O)cc1)c1c(O)cc(O)cc1O` . State its measured normalized growth.
Response line: 0.982

----------
The entries below are paired with their reported normalized growth.
assay procedure: chemical genetic growth profiling, strain panel (AID 1159580);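 note: tested at 20 µM; growth read once vehicle control cultures reached saturation at 30 °C; 1 = growth at the plate median or of vehicle wells; lower values mean less growth of the strain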
study conditions: S. cerevisiae deletion strains, growth OD, locus YHR079C, strain IRE1, active compounds read low
Screen size: about 5,500 compounds; about 2,000 (36%) were called active. Roughly 18% stayed inconclusive and do not appear here. The list shows a part of the results.
// no unit string in output, number only

Below: 4 compounds and their reported normalized growth.
O=C(N[C@@H](CO)[C@H](O)c1ccc([N+](=O)[O-])cc1)C(Cl)Cl
1
CC(NC(C)(C)C)C(=O)c1cccc(Cl)c1 (stereo not drawn)
0.999
O=C(c1ccccc1)c1ccc2n1CCC2C(=O)O (stereo not drawn)
1.02
CCCC(=O)Nc1ccc(OCC(O)CNC(C)C)c(C(C)=O)c1 (stereo not drawn)
1.01

Prompt line: Consider the compound `CC(C)=CCC/C(C)=C/CO` . State its measured normalized growth.
Response line: 0.994

Prompt line: Consider the compound C[N+]12CCC(CC1)C(OC(=O)C(O)(c1ccccc1)c1ccccc1)C2 (stereo not drawn) . State its measured normalized growth.
Response line: 1

Prompt line: Consider the compound `CC(=O)c1ccc[nH]1` . State its measured normalized growth.
Response line: 0.992

Prompt line: Consider the compound C[N+]1(C)CCCC(OC(=O)C(O)(c2ccccc2)c2ccccc2)C1 (stereo not drawn) . State its measured normalized growth.
Response line: 1.02

----------
assay procedure: chemical genetic growth profiling, strain panel (AID 1159580);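 note: tested at 20 µM; growth read once vehicle control cultures reached saturation at 30 °C; 1 = growth at the plate median or of vehicle wells; lower values mean less growth of the strain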
study conditions: S. cerevisiae deletion strains, growth OD, locus YLR330W, strain CHS5, active compounds read low
The campaign covered roughly 5,500 compounds. About 2,000 (36%) were called active. Inconclusive results (about 18%) are left out. This is one part of the list.
test readout: normalized growth
// no unit string in output, number only

Below: 5 compounds and their reported normalized growth.
O=C(O)c1cc(O)c2c(c1)C(=O)c1cc(O)cc(O)c1C2=O
0.926
O=C1C=CC(=O)c2c(O)cccc21
1
COC1=CC23CCCN2CCc2cc4c(cc2C3C1O)OCO4 (stereo unspecified)
1
CC(C)N=C(N)N=C(N)Nc1ccc(Cl)cc1
1.01
CC1=C(C(=O)O)N2C(=O)[C@@H](NC(=O)[C@@H](N)c3ccc(O)cc3)[C@H]2SC1
0.988

Shift focus to the following entry.
Prompt line: Consider the compound `Cn1c(=O)[nH]c2nc[nH]c2c1=O` . State its measured normalized growth.
Response line: 1

The measurements presented in this section are drawn from PubChem BioAssay AID1159580.
